- Species: Canis familiaris
- assay_explanation: Intrinsic activity was measured on the dog carotid artery.
- Format: functional, Canis lupus familiaris
assay_readout: Alphax10E
Just the number, please, no unit after it.

substance_smiles=CSCC[C@H](NC(=O)[C@H](CC(C)C)NC(=O)CNC(=O)[C@H](Cc1ccccc1)NC(=O)[C@H](CC1CCCCC1)NC(=O)[C@H](CCC(N)=O)NC(=O)[C@H](CCC(N)=O)NC(=O)[C@@H]1CCCN1C(=O)[C@H](CCCCN)NC(=O)[C@@H]1CCCN1C(=O)[C@@H](N)CCCN=C(N)N)C(N)=O assay_readout=Alphax10E recorded_value=1

Please find the next compound below.
Return Alphax10E for the following compound: `CSCC[C@H](NC(=O)[C@H](CC(C)C)NC(=O)CNC(=O)[C@H](CC(C)C)NC(=O)[C@H](Cc1ccccc1)NC(=O)[C@H](CCC(N)=O)NC(=O)[C@H](CCC(N)=O)NC(=O)[C@@H]1CCCN1C(=O)[C@H](CCCCN)NC(=O)[C@@H]1CCCN1C(=O)[C@@H](N)CCCN=C(N)N)C(N)=O`
1

* * *

Known pD2 of a selection of compounds
- Species on record: Oryctolagus cuniculus
- assay_explanation: Apparent affinity was measured on the rabbit mesenteric vein.
- Type: functional
Give a plain numeric answer without units written out.

Provide pD2 value for the following compound: `CC[C@H](C)[C@H](NC(=O)[C@H](Cc1ccccc1)NC(=O)[C@H](CCC(N)=O)NC(=O)[C@H](CCC(N)=O)NC(=O)[C@@H]1CCCN1C(=O)[C@H](CCCCN)NC(=O)[C@@H]1CCCN1C(=O)[C@@H](N)CCCN=C(N)N)C(=O)NCC(=O)N[C@@H](CC(C)C)C(=O)N[C@@H](CCSC)C(N)=O`
7.55

State, in one line, measured pD2 of `CSCC[C@H](NC(=O)[C@H](CC(C)C)NC(=O)[C@@H](CC(C)C)NC(=O)[C@H](Cc1ccccc1)NC(=O)[C@H](Cc1ccccc1)NC(=O)[C@H](CCC(N)=O)NC(=O)[C@H](CCC(N)=O)NC(=O)[C@@H]1CCCN1C(=O)[C@H](CCCCN)NC(=O)[C@@H]1CCCN1C(=O)[C@@H](N)CCCN=C(N)N)C(N)=O`
5.11

Write down pD2 measured for item `CSCC[C@H](NC(=O)[C@H](CC(C)C)NC(=O)CNC(=O)[C@H](Cc1ccccc1)NC(=O)[C@H](Cc1c[nH]c2ccccc12)NC(=O)[C@H](CCC(N)=O)NC(=O)[C@H](CCC(N)=O)NC(=O)[C@@H]1CCCN1C(=O)[C@H](CCCCN)NC(=O)[C@@H]1CCCN1C(=O)[C@@H](N)CCCN=C(N)N)C(N)=O`
6.55

Specify measured pD2 for `CSCC[C@H](NC(=O)[C@H](CC(C)C)NC(=O)CNC(=O)[C@H](CC1CCCCC1)NC(=O)[C@H](Cc1ccccc1)NC(=O)[C@H](CCC(N)=O)NC(=O)[C@H](CCC(N)=O)NC(=O)[C@@H]1CCCN1C(=O)[C@H](CCCCN)NC(=O)[C@@H]1CCCN1C(=O)[C@@H](N)CCCN=C(N)N)C(N)=O` .
7.55

Annotate the compound `CSCC[C@H](NC(=O)[C@H](CC(C)C)NC(=O)CNC(=O)[C@H](Cc1ccccc1)NC(=O)[C@H](CC(C)C)NC(=O)[C@H](CCC(N)=O)NC(=O)[C@H](CCC(N)=O)NC(=O)[C@@H]1CCCN1C(=O)[C@H](CCCCN)NC(=O)[C@@H]1CCCN1C(=O)[C@@H](N)CCCN=C(N)N)C(N)=O` with its measured pD2.
5.66

Answer with the recorded pD2 of `COc1ccc(C[C@H](NC(=O)[C@H](CCC(N)=O)NC(=O)[C@H](CCC(N)=O)NC(=O)[C@@H]2CCCN2C(=O)[C@H](CCCCN)NC(=O)[C@@H]2CCCN2C(=O)[C@@H](N)CCCN=C(N)N)C(=O)N[C@@H](Cc2ccccc2)C(=O)NCC(=O)N[C@@H](CC(C)C)C(=O)N[C@@H](CCSC)C(N)=O)cc1` only.
6.87

Output pD2 of `CSCC[C@H](NC(=O)[C@H](CC(C)C)NC(=O)CNC(=O)[C@@H](Cc1c[nH]c2ccccc12)NC(=O)[C@H](Cc1ccccc1)NC(=O)[C@H](CCC(N)=O)NC(=O)[C@H](CCC(N)=O)NC(=O)[C@@H]1CCCN1C(=O)[C@H](CCCCN)NC(=O)[C@@H]1CCCN1C(=O)[C@@H](N)CCCN=C(N)N)C(N)=O`
4.92

* * *

Entries and their measured RA follow.
- Organism: Canis familiaris
- assay_explanation: Relative affinity compared to substance P was measured in the dog carotid artery.
- Type: functional, Canis lupus familiaris
Output: the number by itself.

substance_smiles=CSCC[C@H](NC(=O)[C@H](CC(C)C)NC(=O)[C@@H](Cc1ccccc1)NC(=O)[C@@H](CC(C)C)NC(=O)[C@H](Cc1ccccc1)NC(=O)[C@H](CCC(N)=O)NC(=O)[C@H](CCC(N)=O)NC(=O)[C@@H]1CCCN1C(=O)[C@H](CCCCN)NC(=O)[C@@H]1CCCN1C(=O)[C@@H](N)CCCN=C(N)N)C(N)=O assay_readout=RA recorded_value=0.8
substance_smiles=CSCC[C@H](NC(=O)[C@H](Cc1ccccc1)NC(=O)CNC(=O)[C@@H](C)NC(=O)[C@H](Cc1ccccc1)NC(=O)[C@H](CCC(N)=O)NC(=O)[C@H](CCC(N)=O)NC(=O)[C@@H]1CCCN1C(=O)[C@H](CCCCN)NC(=O)[C@@H]1CCCN1C(=O)[C@@H](N)CCCN=C(N)N)C(N)=O assay_readout=RA recorded_value=1.4
substance_smiles=COc1ccc(C[C@H](NC(=O)[C@H](Cc2ccccc2)NC(=O)[C@H](CCC(N)=O)NC(=O)[C@H](CCC(N)=O)NC(=O)[C@@H]2CCCN2C(=O)[C@H](CCCCN)NC(=O)[C@@H]2CCCN2C(=O)[C@@H](N)CCCN=C(N)N)C(=O)NCC(=O)N[C@@H](CC(C)C)C(=O)N[C@@H](CCSC)C(N)=O)cc1 assay_readout=RA recorded_value=95
substance_smiles=CSCC[C@H](NC(=O)[C@H](CC(C)C)NC(=O)CNC(=O)[C@H](Cc1ccccc1)NC(=O)[C@H](CC(C)C)NC(=O)[C@H](CCC(N)=O)NC(=O)[C@H](CCC(N)=O)NC(=O)[C@@H]1CCCN1C(=O)[C@H](CCCCN)NC(=O)[C@@H]1CCCN1C(=O)[C@@H](N)CCCN=C(N)N)C(N)=O assay_readout=RA recorded_value=0.4
substance_smiles=CSCC[C@H](NC(=O)[C@H](CC(C)C)NC(=O)CNC(=O)[C@H](Cc1ccccc1)NC(=O)[C@@H](Cc1c[nH]c2ccccc12)NC(=O)[C@H](CCC(N)=O)NC(=O)[C@H](CCC(N)=O)NC(=O)[C@@H]1CCCN1C(=O)[C@H](CCCCN)NC(=O)[C@@H]1CCCN1C(=O)[C@@H](N)CCCN=C(N)N)C(N)=O assay_readout=RA recorded_value=0.2

Pending compound:
Please look at this compound and report its RA: `CSCC[C@H](NC(=O)[C@H](CC(C)C)NC(=O)[C@@H](CC(C)C)NC(=O)[C@H](Cc1ccccc1)NC(=O)[C@H](Cc1ccccc1)NC(=O)[C@H](CCC(N)=O)NC(=O)[C@H](CCC(N)=O)NC(=O)[C@@H]1CCCN1C(=O)[C@H](CCCCN)NC(=O)[C@@H]1CCCN1C(=O)[C@@H](N)CCCN=C(N)N)C(N)=O`
0.3

* * *

Below is a list of entries, each paired with its recorded Alphax10E value.
- Species: Canis familiaris
- assay_explanation: Intrinsic activity was measured on the dog carotid artery.
- Assay type: functional, Canis lupus familiaris

Worked cases, answers included:
substance_smiles=CSCC[C@H](NC(=O)[C@H](CC(C)C)NC(=O)CNC(=O)[C@H](Cc1ccccc1)NC(=O)[C@H](CC(C)C)NC(=O)[C@H](CCC(N)=O)NC(=O)[C@H](CCC(N)=O)NC(=O)[C@@H]1CCCN1C(=O)[C@H](CCCCN)NC(=O)[C@@H]1CCCN1C(=O)[C@@H](N)CCCN=C(N)N)C(N)=O recorded_value=1
substance_smiles=CSCC[C@H](NC(=O)[C@H](CC(C)C)NC(=O)CNC(=O)[C@H](Cc1ccccc1)NC(=O)[C@H](Cc1c[nH]c2ccccc12)NC(=O)[C@H](CCC(N)=O)NC(=O)[C@H](CCC(N)=O)NC(=O)[C@@H]1CCCN1C(=O)[C@H](CCCCN)NC(=O)[C@@H]1CCCN1C(=O)[C@@H](N)CCCN=C(N)N)C(N)=O recorded_value=1
substance_smiles=CSCC[C@H](NC(=O)[C@H](Cc1ccccc1)NC(=O)CNC(=O)[C@@H](C)NC(=O)[C@H](Cc1ccccc1)NC(=O)[C@H](CCC(N)=O)NC(=O)[C@H](CCC(N)=O)NC(=O)[C@@H]1CCCN1C(=O)[C@H](CCCCN)NC(=O)[C@@H]1CCCN1C(=O)[C@@H](N)CCCN=C(N)N)C(N)=O recorded_value=1

For the compound `CSCC[C@H](NC(=O)[C@H](CC(C)C)NC(=O)CNC(=O)[C@@H](Cc1c[nH]c2ccccc12)NC(=O)[C@H](Cc1ccccc1)NC(=O)[C@H](CCC(N)=O)NC(=O)[C@H](CCC(N)=O)NC(=O)[C@@H]1CCCN1C(=O)[C@H](CCCCN)NC(=O)[C@@H]1CCCN1C(=O)[C@@H](N)CCCN=C(N)N)C(N)=O` , give its reported Alphax10E.
1

Annotate the compound `CSCC[C@H](NC(=O)[C@H](CC(C)C)NC(=O)[C@@H](Cc1ccccc1)NC(=O)[C@@H](CC(C)C)NC(=O)[C@H](Cc1ccccc1)NC(=O)[C@H](CCC(N)=O)NC(=O)[C@H](CCC(N)=O)NC(=O)[C@@H]1CCCN1C(=O)[C@H](CCCCN)NC(=O)[C@@H]1CCCN1C(=O)[C@@H](N)CCCN=C(N)N)C(N)=O` with its measured Alphax10E.
1

Please give the documented Alphax10E of `CSCC[C@H](NC(=O)[C@H](CC(C)C)NC(=O)CNC(=O)[C@H](Cc1ccccc1)NC(=O)[C@@H](Cc1c[nH]c2ccccc12)NC(=O)[C@H](CCC(N)=O)NC(=O)[C@H](CCC(N)=O)NC(=O)[C@@H]1CCCN1C(=O)[C@H](CCCCN)NC(=O)[C@@H]1CCCN1C(=O)[C@@H](N)CCCN=C(N)N)C(N)=O`
1

Assign Alphax10E to the following record: `CSCC[C@H](NC(=O)[C@H](CC(C)C)NC(=O)[C@@H](CC(C)C)NC(=O)[C@H](Cc1ccccc1)NC(=O)[C@H](Cc1ccccc1)NC(=O)[C@H](CCC(N)=O)NC(=O)[C@H](CCC(N)=O)NC(=O)[C@@H]1CCCN1C(=O)[C@H](CCCCN)NC(=O)[C@@H]1CCCN1C(=O)[C@@H](N)CCCN=C(N)N)C(N)=O`
1

# return recorded Alphax10E for input `COc1ccc(C[C@H](NC(=O)[C@H](Cc2ccccc2)NC(=O)[C@H](CCC(N)=O)NC(=O)[C@H](CCC(N)=O)NC(=O)[C@@H]2CCCN2C(=O)[C@H](CCCCN)NC(=O)[C@@H]2CCCN2C(=O)[C@@H](N)CCCN=C(N)N)C(=O)NCC(=O)N[C@@H](CC(C)C)C(=O)N[C@@H](CCSC)C(N)=O)cc1`
1
